# Tested on: NCI-H460
# experiment_notes: Growth inhibition of human NCI-H460 cells incubated for 48 hrs by sulforhodamine B assay
# Format: functional
# condition_description: NCI-H460, 48 h, read-out: pTGI (converted)
Below, each of the compounds is paired with its reported TGI value.

Example results:
[[record]]
record_smiles = "Clc1ccc(-c2nc(Nc3ccc(-c4nc5ccccc5[nH]4)cc3)nc(N3CCOCC3)n2)cc1"
property_name = "TGI"
value_measured = "0.49 µM"

[[record]]
record_smiles = "Fc1ccc(-c2nc(Nc3ccc(-c4nc5ccccc5[nH]4)cc3)nc(N3CCOCC3)n2)cc1"
property_name = "TGI"
value_measured = "6.46 µM"

[[record]]
record_smiles = "c1ccc2[nH]c(-c3ccc(Nc4nc(N5CCCCC5)nc(N5CCOCC5)n4)cc3)nc2c1"
property_name = "TGI"
value_measured = "6.17 µM"


Now look at this entry.
Query string: Could you tell me which TGI is on file for "c1ccc(-c2nc(Nc3ccc(-c4nc5ccccc5[nH]4)cc3)nc(N3CCOCC3)n2)cc1" ?
Result string: 2.45 µM
